target: Large T antigen (Simian virus 40) (UniProt P03070); assay: SV40 large T antigen inhibitors, biochemical (AID 1903); settings: SV40 large T antigen ATPase/helicase inhibition assay; at 20 µM; active compounds read high
Sequence (P03070 whole entry, looked up): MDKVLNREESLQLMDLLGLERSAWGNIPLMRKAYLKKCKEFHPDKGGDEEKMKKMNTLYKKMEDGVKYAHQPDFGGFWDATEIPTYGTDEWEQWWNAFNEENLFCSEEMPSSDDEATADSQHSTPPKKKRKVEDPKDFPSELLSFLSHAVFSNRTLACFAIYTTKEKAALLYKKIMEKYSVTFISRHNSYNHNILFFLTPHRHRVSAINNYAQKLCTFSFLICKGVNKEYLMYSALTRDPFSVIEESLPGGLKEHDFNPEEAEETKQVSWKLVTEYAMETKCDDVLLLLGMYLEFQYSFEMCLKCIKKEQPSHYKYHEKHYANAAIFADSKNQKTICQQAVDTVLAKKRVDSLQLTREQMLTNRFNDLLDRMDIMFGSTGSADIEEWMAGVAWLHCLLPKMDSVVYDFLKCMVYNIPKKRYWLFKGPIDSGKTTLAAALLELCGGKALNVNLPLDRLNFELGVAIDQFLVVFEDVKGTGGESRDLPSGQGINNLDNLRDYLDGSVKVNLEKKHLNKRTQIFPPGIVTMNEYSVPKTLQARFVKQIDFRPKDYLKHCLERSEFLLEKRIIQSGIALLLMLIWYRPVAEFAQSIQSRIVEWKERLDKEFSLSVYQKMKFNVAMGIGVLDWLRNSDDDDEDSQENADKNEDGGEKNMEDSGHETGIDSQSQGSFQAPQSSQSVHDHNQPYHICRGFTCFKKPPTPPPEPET
The campaign covered roughly 310,000 compounds. About 1,200 (0.39%) were called active. These entries were drawn from the full list. Results with a measured potency or affinity are listed apart.
So I've got a bunch of compounds here, and I need their inhibition values.
Answers are plain numbers, in %.

Known results for compounds:
>>> print(df.to_string())
                                   compound    val
0  COc1ccc(Nc2cc3n(c(=O)n2)CCc2cc(OC)c(OC)cc2-3)cc1   10.4
1  COc1ccc(-c2cc(-c3ccco3)[nH]c(=O)c2C#N)cc1   33.2
2  COc1cccc(C(=O)NC2CC3CCCC(C2)N3CC(=O)Nc2ccccc2C(F)(F)F)c1 (stereo not given)  -1.46
3  Cn1c(SCC(=O)Nc2ccc3c(c2)OCCO3)nnc1-c1cccnc1  -0.17
4  O=C(/C=C/c1ccc(O)c(O)c1)OC(Cc1ccc(O)c(O)c1)C(=O)O (stereo not given)   4.28

// each listed compound needs a value for inhibition
1. COc1ccc(C)c2sc(=NC(=O)c3cccc(N4C(=O)CCC4=O)c3)n(C)c12
2. COC(=O)Nc1ccc([N+](=O)[O-])cc1OC
3. O=C(C(=O)N1CCCc2ccccc21)N1CCCc2ccccc21
4. COc1ccc(-c2cc(-c3ccco3)[nH]c(=O)c2C#N)cc1OC
5. Fc1ccc(-c2nnc(CSc3nnc4ccccn34)o2)cc1

Reply:
[14.4, 3, -4.81, 33.5, 14.8]

Batch request: inhibition for each of the following compounds.
1. CN1C(=O)S/C(=C\c2ccccc2OCc2ccc(C(=O)O)cc2)C1=O
2. N#C/C(=C/c1ccc(Sc2nc3ccccc3[nH]2)o1)c1cccc(F)c1
3. COC1CCN(C(=O)CC2C(=O)NCCN2CC(C)(C)C)CC1 (stereo not given)
4. O=C(COC(=O)c1ccc(Cl)nc1)NCCNC(=O)COC(=O)c1ccc(Cl)nc1
5. CC(NC(=O)c1ccccc1F)c1ccccc1 (stereo not given)

Reply:
1: 10.5; 2: 0.21; 3: -3.7; 4: 14.5; 5: 3.89

// data source = PubChem BioAssay AID1903
